# Test system: BT-549 breast
# test: NCI-60 one-dose screen, 48 h (100 = growth as untreated, 0 = no growth, -100 = all killed)
# runParameters: 10 µM unless noted
This is part of a sample that, as a whole, favours compounds with a hit. Of some 83,000 tested, about 20% had one in any assay.

{"molecule": "Cc1ccc2c(n1)C(=O)c1[nH]c3ccccc3c1C2=O", "growth / %": 58.5}
{"molecule": "COc1ccc(C2c3sc4c(F)cccc4c3Oc3nc[nH]c(=O)c32)cc1 (stereo not drawn)", "growth / %": 84.6}
{"molecule": "CCOC(=O)c1cnc2ccccc2c1Cl", "growth / %": 112}
